Assay: AUClast in Sprague-Dawley rat at 1 mg/kg, iv measured upto 24 hrs by LC/MS-MS analysis
Assay type: ADME, organism-based
Design: dose 1 mg/kg, time < 24 hr, route intravenous
Conditions: in vivo
Please use 1 (yes) for AUC(0-t) at 24 h under 8 µM·h and 0 (no) for everything else, ties included.

Reference set (3 entries):
O=S(=O)(Nc1ncccn1)c1ccc2c(c1)OCC[C@@H]2c1ccc(C(F)(F)F)cc1N1CCOCC1 :: 1 (yes)
Cn1nccc1-c1cc(C(F)(F)F)ccc1[C@H]1CCOc2cc(S(=O)(=O)Nc3ncccn3)ccc21 :: 0 (no)
O=S(=O)(Nc1ncccn1)c1ccc2c(c1)OCC[C@@H]2c1ccc(C(F)(F)F)cc1-c1ccc(F)nc1 :: 0 (no)

Now take the following compound into account.
Q: I wonder whether Cc1ccc(-c2cc(C(F)(F)F)ccc2[C@H]2CCOc3cc(S(=O)(=O)Nc4ncccn4)ccc32)cn1 has AUC(0-t) at 24 h below 8 µM·h. Can you tell?
A: 1 (yes)
